System: ethanol induced gastric ulcers
procedureSummary: Ethanol induced ulcers
Assay type: in vivo, albino rats
conditionSet: rats, 25 mg/kg, ethanol challenge
# Inhibition % annotations
Your answer is read as %, so omit the unit and give the number.

- compound: "CN1CCN(CCCOc2cc(O)c3c(=O)cc(-c4ccccc4)oc3c2)CC1"
  measuredEndpoint: "Inhibition %"
  val: 57.50
- compound: "COc1c(OC2OC(CO)C(O)C(O)C2O)cc2oc(-c3ccccc3)cc(=O)c2c1O (stereo not drawn)"
  measuredEndpoint: "Inhibition %"
  val: 20.00

Simply: CN1CCN(CCCCOc2cc(O)c3c(=O)cc(-c4ccccc4)oc3c2)CC1 , ethanol induced gastric ulcers, Inhibition % = 36.25

# lookup: COC(=O)C1OC(Oc2cc3oc(-c4ccccc4)cc(=O)c3cc2OC)C(O)C(O)C1O (stereo not drawn) on ethanol induced gastric ulcers, Inhibition % = 82.50

I looked up COc1c(OC(=O)c2ccc(C)cc2)cc2oc(-c3ccccc3)cc(=O)c2c1O and its Inhibition % for ethanol induced gastric ulcers was 28.75

Field Inhibition % (system: ethanol induced gastric ulcers) for entry COC(=O)C1OC(Oc2ccc3c(=O)cc(-c4ccccc4)oc3c2)C(O)C(O)C1O (stereo not drawn) = 62.50
